Below is a list of entries, each paired with its recorded EC50 value.
- Test system: JRFNRLuc
- test-summary: Inhibition of JRFNRLuc reporter virus replication in MT-2 #18 cells (renilla luciferase activity)
- Format: cell-based, HIV-1
- recorded-conditions: Human immunodeficiency virus 1, read-out: EC50, inhibition of viral replication
reported-metric: EC50 (nM)

- O=C1Nc2ccc(Cl)cc2[C@@](C#CC2CC2)(C(F)(F)F)O1: 0.12
- CC(C)CN(C[C@@H](O)[C@H](Cc1ccccc1)NC(=O)O[C@H]1CCOC1)S(=O)(=O)c1ccc(N)cc1: 6.9
